// reported Tmax per item
Test: in vivo
Condition set: Sprague-Dawley, rat, po
Give the number first and the unit second.

Identify Tmax associated with the molecule CC(C)=CCC[C@](C)(O[C@@H]1O[C@H](CO)[C@@H](O)[C@H](O)[C@H]1O)[C@H]1CC[C@]2(C)[C@@H]1[C@H](O)C[C@@H]1[C@@]3(C)CC[C@H](O[C@@H]4O[C@H](CO)[C@@H](O)[C@H](O)[C@H]4O)C(C)(C)[C@@H]3CC[C@]12C [Ginsenoside F2]
40.2 min

Identify Tmax associated with the molecule O=C(/C=C/c1ccc(O)c(O)c1/C=C/c1ccc(O)c(O)c1)O[C@H](Cc1ccc(O)c(O)c1)C(=O)O
10.2 min

Identify Tmax associated with the molecule C[C@@H]1O[C@@H](OC[C@H]2O[C@@H](Oc3c(-c4ccc(O)c(O)c4)oc4cc(O)cc(O)c4c3=O)[C@H](O)[C@@H](O)[C@@H]2O)[C@H](O)[C@H](O)[C@H]1O
19.8 min

====

Test: Pharmacokinetics of 29 QLQX components in rat plasma by HPLC-MS/MS after intragastric QLQX
Condition set: rat plasma, QLQX suspension […] intragastrically, mean ± SD
Binary classification by t1/2, with 6 as an inclusive lower bound for 1; all other cases are 0.

A selection of reference data follows.
COC[C@]12CN(C)[C@@H]3[C@@H]4[C@H](OC)[C@H]1[C@@]3([C@@H](OC)C[C@H]2O)[C@@H]1C[C@@]2(O)[C@H](OC(=O)c3ccccc3)[C@@H]1[C@]4(OC(C)=O)[C@@H](O)[C@@H]2OC [Mesaconitine] = 1
COC[C@]12CN(C)C3[C@@H]4[C@H](OC)[C@H]1[C@@]3([C@@H](OC)C[C@H]2O)[C@@H]1C[C@@]2(O)[C@H](OC(=O)c3ccccc3)[C@@H]1[C@]4(O)[C@@H](O)[C@@H]2OC [Benzoylmesaconine] = 1
CCN1C[C@]2(COC)[C@H](O)C[C@H](OC)[C@@]34[C@@H]5C[C@@]6(O)[C@H](OC(=O)c7ccccc7)[C@@H]5[C@@](O)([C@@H]([C@H](OC)[C@H]23)[C@@H]14)[C@@H](O)[C@@H]6OC [Benzoylaconine] = 1

Does the compound COC[C@@]12CC[C@H](OC)[C@]34C([C@H]([C@H](OC)[C@H]13)[C@]1(O)[C@H]3[C@@H](OC(=O)c5ccccc5)[C@](O)(C[C@H]34)[C@@H](OC)[C@@H]1O)N(C)C2 [Benzoylhypaconine] have recorded t1/2 that is 6 or more?
1

Does the compound CC(C)(O)C1CCC(C)(C2C(O)CC3(C)C4CC(OC5OC(CO)C(O)C(O)C5O)C5C(C)(C)C(OC6OCC(O)C(O)C6O)CCC56CC46CCC23C)O1 (centres unmarked) [Astragaloside] have recorded t1/2 that is 6 or more?
0

====

Parameters: unit not given beside the values
Condition set: rat, in vivo, po
Lab note - cut at 100 for AUC0∼∞: yes if strictly below, no if not.

A selection of reference data follows.
COc1cc(/C=C/C(=O)OCC[N+](C)(C)C)cc(OC)c1O.O=S(=O)([O-])O [Sinapine bisulfate] = yes
COc1ccc(-c2coc3cc(O[C@@H]4O[C@H](CO)[C@@H](O)[C@H](O)[C@H]4O)ccc3c2=O)cc1O [Calycosin-7-glucoside] = no
COc1ccc([C@@H]2CC(=O)c3c(O)cc(O[C@@H]4O[C@H](CO[C@@H]5O[C@@H](C)[C@H](O)[C@@H](O)[C@H]5O)[C@@H](O)[C@H](O)[C@H]4O)cc3O2)cc1O [Hesperidin] = no
O=C(O)[C@H](O)Cc1ccc(O)c(O)c1 [Danshensu] = no

Then there is this compound:
Find out if reported AUC0∼∞ for CC(C)=CCC[C@](C)(O)[C@H]1CC[C@]2(C)[C@@H]1[C@H](O)C[C@@H]1[C@@]3(C)CC[C@H](O[C@@H]4O[C@H](CO)[C@@H](O)[C@H](O)[C@H]4O[C@@H]4O[C@H](CO)[C@@H](O)[C@H](O)[C@H]4O)C(C)(C)[C@@H]3CC[C@]12C [Ginsenoside Rg3] is less than 100
yes

====

Test: in vivo
Condition set: Sprague-Dawley, rat, po
// reported half-life per item
Express your answer in h, writing the number without its unit.

The examples below pair each entry with its known result.
C[C@@H]1O[C@@H](OC[C@H]2O[C@@H](Oc3c(-c4ccc(O)c(O)c4)oc4cc(O)cc(O)c4c3=O)[C@H](O)[C@@H](O)[C@@H]2O)[C@H](O)[C@H](O)[C@H]1O [Rutin] = 5.33
CC(C)=CCC[C@](C)(O[C@@H]1O[C@H](CO)[C@@H](O)[C@H](O)[C@H]1O)[C@H]1CC[C@]2(C)[C@@H]1[C@H](O)C[C@@H]1[C@@]3(C)CC[C@H](O[C@@H]4O[C@H](CO)[C@@H](O)[C@H](O)[C@H]4O)C(C)(C)[C@@H]3CC[C@]12C [Ginsenoside F2] = 6.23
O=C(/C=C/c1ccc(O)c(O)c1)O[C@H](Cc1ccc(O)c(O)c1)C(=O)O [Rosmarinic acid] = 5.28
O=C(/C=C/c1ccc(O)c(O)c1/C=C/c1ccc(O)c(O)c1)O[C@H](Cc1ccc(O)c(O)c1)C(=O)O [Salvianolic acid A] = 7.5
CC(C)=CCC[C@](C)(O)[C@H]1CC[C@]2(C)[C@@H]1[C@H](O)C[C@@H]1[C@@]3(C)CC[C@H](O)C(C)(C)[C@@H]3[C@@H](O[C@@H]3O[C@H](CO)[C@@H](O)[C@H](O)[C@H]3O[C@@H]3O[C@H](CO)[C@@H](O)[C@H](O)[C@H]3O)C[C@]12C [Ginsenoside Rf] = 6.12

Proceed to the following item.
Identify half-life associated with the molecule COC[C@@]12CC[C@H](OC)[C@]34C(C([C@H](OC)[C@H]13)[C@]1(OC(C)=O)[C@H]3[C@@H](OC(=O)c5ccccc5)[C@](O)(C[C@H]34)[C@@H](OC)[C@@H]1O)N(C)C2 [Hypaconitine]
8.01

====

Set-up: unit not given beside the values
Condition set: rat, in vivo, po
// reported AUC0∼t per item
Respond with the number and no other words.

The examples below pair each entry with its known result.
CC(C)=CCC[C@](C)(O)[C@H]1CC[C@]2(C)[C@@H]1[C@H](O)C[C@@H]1[C@@]3(C)CC[C@H](O[C@@H]4O[C@H](CO)[C@@H](O)[C@H](O)[C@H]4O[C@@H]4O[C@H](CO)[C@@H](O)[C@H](O)[C@H]4O)C(C)(C)[C@@H]3CC[C@]12C [Ginsenoside Rg3] = 67.13
COc1cc(/C=C/C(=O)OCC[N+](C)(C)C)cc(OC)c1O.O=S(=O)([O-])O [Sinapine bisulfate] = 3.98
O=C(O)[C@H](O)Cc1ccc(O)c(O)c1 [Danshensu] = 290.92
COc1ccc([C@@H]2CC(=O)c3c(O)cc(O[C@@H]4O[C@H](CO[C@@H]5O[C@@H](C)[C@H](O)[C@@H](O)[C@H]5O)[C@@H](O)[C@H](O)[C@H]4O)cc3O2)cc1O [Hesperidin] = 154.32

Proceed to the following item.
Identify AUC0∼t associated with the compound COc1ccc(-c2coc3cc(O[C@@H]4O[C@H](CO)[C@@H](O)[C@H](O)[C@H]4O)ccc3c2=O)cc1O [Calycosin-7-glucoside]
103.26
